assay-target: MAO-B (Homo sapiens, UniProt P27338)
Construct: purchased Sigma-Aldrich
Sequence (P27338 whole entry): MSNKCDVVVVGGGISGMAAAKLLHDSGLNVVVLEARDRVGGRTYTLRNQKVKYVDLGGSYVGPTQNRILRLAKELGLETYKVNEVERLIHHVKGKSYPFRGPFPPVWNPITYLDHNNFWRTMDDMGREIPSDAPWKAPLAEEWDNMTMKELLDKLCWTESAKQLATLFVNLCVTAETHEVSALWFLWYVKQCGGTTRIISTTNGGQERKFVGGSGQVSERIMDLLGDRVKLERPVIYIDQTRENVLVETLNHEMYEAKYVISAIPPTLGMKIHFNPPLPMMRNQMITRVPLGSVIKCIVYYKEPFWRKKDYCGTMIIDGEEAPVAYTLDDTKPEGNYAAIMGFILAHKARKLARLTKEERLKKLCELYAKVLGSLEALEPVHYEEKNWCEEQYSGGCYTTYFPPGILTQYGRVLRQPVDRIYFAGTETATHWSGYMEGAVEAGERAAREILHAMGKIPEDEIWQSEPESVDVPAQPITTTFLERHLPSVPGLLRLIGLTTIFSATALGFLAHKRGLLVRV
test: MAO-B inhibition assay (recombinant enzyme, benzylamine substrate)
Format: biochemical
assay-conditions: IC50 MAO-A divided by IC50 MAO-B
assay-readout: SI (selectivity index for MAO-B as compared to MAO-A)

1. COc1ccc(C(=O)/C=C/c2ccc(Br)cc2)cc1OC; >273.97
2. COc1ccc(C(=O)/C=C/c2cccc(Cl)c2)cc1OC; >8.51
3. COc1ccc(C(=O)/C=C/c2ccccc2F)cc1OC; >338.98

* * *

assay-target: AChE (Electrophorus electricus, UniProt O42275)
Sequence (O42275 24-633): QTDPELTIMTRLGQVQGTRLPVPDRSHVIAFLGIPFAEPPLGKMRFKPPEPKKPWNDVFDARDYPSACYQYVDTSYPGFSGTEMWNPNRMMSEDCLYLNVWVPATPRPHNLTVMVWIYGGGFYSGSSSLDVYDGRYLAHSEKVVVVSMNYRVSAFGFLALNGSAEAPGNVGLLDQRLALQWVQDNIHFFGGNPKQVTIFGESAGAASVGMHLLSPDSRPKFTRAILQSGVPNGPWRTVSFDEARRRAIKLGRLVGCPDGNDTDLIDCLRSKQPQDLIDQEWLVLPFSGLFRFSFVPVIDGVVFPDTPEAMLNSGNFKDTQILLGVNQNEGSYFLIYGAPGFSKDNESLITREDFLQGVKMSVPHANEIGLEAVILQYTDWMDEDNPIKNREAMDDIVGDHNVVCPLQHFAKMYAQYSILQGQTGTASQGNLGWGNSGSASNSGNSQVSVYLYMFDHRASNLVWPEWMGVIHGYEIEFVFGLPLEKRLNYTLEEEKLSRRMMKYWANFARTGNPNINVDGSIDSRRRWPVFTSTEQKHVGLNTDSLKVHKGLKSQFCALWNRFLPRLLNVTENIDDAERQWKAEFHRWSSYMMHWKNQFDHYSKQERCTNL
test: AChE inhibition (colorimetric, acetylthiocholine iodide)
Assay type: biochemical
assay-conditions: read-out: Residual activity at 10 µM (%) AChE
assay-readout: remaining activity at 10 µM

1) COc1ccc(C(=O)/C=C/c2ccc(F)cc2)c(OC)c1 [DM10]; 64.3%
2) COc1ccc(C(=O)/C=C/c2ccc(Cl)cc2)cc1OC [DM14]; 97.6%
3) COc1ccc(C(=O)/C=C/c2cccc(Br)c2)cc1OC [DM16]; 82.7%
